# target-system: T1, Human CD137 ECD (human)
# T1 construct: entry includes C-terminal His-tag and biotin acceptor peptide; also called human CD137 extracellular domain; 4-1BB
# T1 sequence (chain, as listed by the source limits assumed): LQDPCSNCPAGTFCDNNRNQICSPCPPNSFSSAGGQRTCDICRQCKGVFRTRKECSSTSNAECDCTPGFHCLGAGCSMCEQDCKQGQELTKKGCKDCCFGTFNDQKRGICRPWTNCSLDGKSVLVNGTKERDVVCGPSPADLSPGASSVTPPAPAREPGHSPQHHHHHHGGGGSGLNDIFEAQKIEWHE
# assay-method-text: Biacore SPR, vs parent H183/L072
Can you tell me fold change of affinity for the items I'm about to list?
Reply with the number and its unit after it.

Form field fold change of affinity, entry H183/L072 VL F96E (antibody, name in Kabat numbering, V domains shown, Dual-Ig) VH: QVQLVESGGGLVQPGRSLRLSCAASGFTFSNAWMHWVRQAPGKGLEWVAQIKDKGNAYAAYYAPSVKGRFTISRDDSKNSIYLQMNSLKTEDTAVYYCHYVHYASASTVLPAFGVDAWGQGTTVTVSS VL: DIVMTQSPLSLPVTPGEPASISCQASQELVHMNRNTYLHWYQQKPGQAPRLLIYKVSNRFPGVPDRFSGSGSGTDFTLKISRVEAEDVGVYYCAQGTSVPETFGQGTKLEIK : 0 fold

Form field fold change of affinity, entry H183/L072 VL Q90D (antibody, name in Kabat numbering, V domains shown, Dual-Ig) VH: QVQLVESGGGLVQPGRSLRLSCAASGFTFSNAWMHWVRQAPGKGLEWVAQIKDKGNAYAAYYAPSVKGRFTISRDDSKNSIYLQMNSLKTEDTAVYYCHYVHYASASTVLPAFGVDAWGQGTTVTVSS VL: DIVMTQSPLSLPVTPGEPASISCQASQELVHMNRNTYLHWYQQKPGQAPRLLIYKVSNRFPGVPDRFSGSGSGTDFTLKISRVEAEDVGVYYCADGTSVPFTFGQGTKLEIK : 0 fold

Form field fold change of affinity, entry H183/L072 VL P56W (antibody, name in Kabat numbering, V domains shown, Dual-Ig) VH: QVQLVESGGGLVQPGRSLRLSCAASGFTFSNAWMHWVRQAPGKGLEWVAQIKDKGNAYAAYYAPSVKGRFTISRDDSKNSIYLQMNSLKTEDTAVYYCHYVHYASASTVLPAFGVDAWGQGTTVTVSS VL: DIVMTQSPLSLPVTPGEPASISCQASQELVHMNRNTYLHWYQQKPGQAPRLLIYKVSNRFWGVPDRFSGSGSGTDFTLKISRVEAEDVGVYYCAQGTSVPFTFGQGTKLEIK : 0 fold

Form field fold change of affinity, entry H183/L072 VL P95N (antibody, name in Kabat numbering, V domains shown, Dual-Ig) VH: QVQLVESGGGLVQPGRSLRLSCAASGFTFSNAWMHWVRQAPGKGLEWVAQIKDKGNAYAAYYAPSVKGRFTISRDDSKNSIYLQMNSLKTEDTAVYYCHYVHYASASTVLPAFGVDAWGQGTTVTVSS VL: DIVMTQSPLSLPVTPGEPASISCQASQELVHMNRNTYLHWYQQKPGQAPRLLIYKVSNRFPGVPDRFSGSGSGTDFTLKISRVEAEDVGVYYCAQGTSVNFTFGQGTKLEIK : 0 fold

Form field fold change of affinity, entry H183/L072 VL G91I (antibody, name in Kabat numbering, V domains shown, Dual-Ig) VH: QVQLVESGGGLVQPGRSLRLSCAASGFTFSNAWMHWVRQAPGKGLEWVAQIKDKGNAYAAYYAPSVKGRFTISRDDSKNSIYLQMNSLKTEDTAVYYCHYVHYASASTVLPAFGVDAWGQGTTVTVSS VL: DIVMTQSPLSLPVTPGEPASISCQASQELVHMNRNTYLHWYQQKPGQAPRLLIYKVSNRFPGVPDRFSGSGSGTDFTLKISRVEAEDVGVYYCAQITSVPFTFGQGTKLEIK : 0 fold

Form field fold change of affinity, entry H183/L072 VL S26F (antibody, name in Kabat numbering, V domains shown, Dual-Ig) VH: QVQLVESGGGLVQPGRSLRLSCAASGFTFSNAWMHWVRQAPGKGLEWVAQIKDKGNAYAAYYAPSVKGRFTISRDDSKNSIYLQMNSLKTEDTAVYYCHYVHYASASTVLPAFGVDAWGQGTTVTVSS VL: DIVMTQSPLSLPVTPGEPASISCQAFQELVHMNRNTYLHWYQQKPGQAPRLLIYKVSNRFPGVPDRFSGSGSGTDFTLKISRVEAEDVGVYYCAQGTSVPFTFGQGTKLEIK : 0.2 fold

Form field fold change of affinity, entry H183/L072 VL L33M (antibody, name in Kabat numbering, V domains shown, Dual-Ig) VH: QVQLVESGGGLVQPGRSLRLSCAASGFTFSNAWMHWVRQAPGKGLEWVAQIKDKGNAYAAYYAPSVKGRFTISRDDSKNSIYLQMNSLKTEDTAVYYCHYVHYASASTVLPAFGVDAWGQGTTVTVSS VL: DIVMTQSPLSLPVTPGEPASISCQASQELVHMNRNTYMHWYQQKPGQAPRLLIYKVSNRFPGVPDRFSGSGSGTDFTLKISRVEAEDVGVYYCAQGTSVPFTFGQGTKLEIK : 0.9 fold

Form field fold change of affinity, entry H183/L072 VL R29D (antibody, name in Kabat numbering, V domains shown, Dual-Ig) VH: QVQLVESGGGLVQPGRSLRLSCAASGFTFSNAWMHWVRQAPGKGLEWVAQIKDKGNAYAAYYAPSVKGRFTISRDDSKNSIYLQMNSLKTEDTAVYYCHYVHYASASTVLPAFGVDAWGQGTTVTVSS VL: DIVMTQSPLSLPVTPGEPASISCQASQELVHMNDNTYLHWYQQKPGQAPRLLIYKVSNRFPGVPDRFSGSGSGTDFTLKISRVEAEDVGVYYCAQGTSVPFTFGQGTKLEIK : 0.3 fold

Form field fold change of affinity, entry H183/L072 VL N28P (antibody, name in Kabat numbering, V domains shown, Dual-Ig) VH: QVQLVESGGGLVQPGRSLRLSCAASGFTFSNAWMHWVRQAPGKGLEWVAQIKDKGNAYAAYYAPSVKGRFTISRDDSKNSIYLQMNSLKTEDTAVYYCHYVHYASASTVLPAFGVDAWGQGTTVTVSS VL: DIVMTQSPLSLPVTPGEPASISCQASQELVHMPRNTYLHWYQQKPGQAPRLLIYKVSNRFPGVPDRFSGSGSGTDFTLKISRVEAEDVGVYYCAQGTSVPFTFGQGTKLEIK : 0.4 fold

Form field fold change of affinity, entry H183/L072 VL T97V (antibody, name in Kabat numbering, V domains shown, Dual-Ig) VH: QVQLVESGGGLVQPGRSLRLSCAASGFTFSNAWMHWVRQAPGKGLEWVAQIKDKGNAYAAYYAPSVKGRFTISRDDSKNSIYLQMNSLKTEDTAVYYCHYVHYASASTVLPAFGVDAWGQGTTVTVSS VL: DIVMTQSPLSLPVTPGEPASISCQASQELVHMNRNTYLHWYQQKPGQAPRLLIYKVSNRFPGVPDRFSGSGSGTDFTLKISRVEAEDVGVYYCAQGTSVPFVFGQGTKLEIK : 1 fold
